Where do the numbers come from? From patent US20120295915A1.

Reported log10(IC50) for target or system FAS (Homo sapiens), by entry.
The common logarithm of IC50 in nM is what is listed.

Find the measured log10(IC50) of O=C(C1CC1)N1CC[C@@H](Cn2c(-c3ccc(-c4cccc5[nH]ccc45)cc3)nc3cnccc32)C1 and report it. 1.11

# return recorded log10(IC50) for input O=C(C1CC1)N1CC[C@@H](Cn2c(-c3ccc(-c4ccc5[nH]ccc5c4)cc3)nc3cnccc32)C1 1.28

Provide one value: measured log10(IC50) of O=C(C1CC1)N1CC[C@@H](Cn2c(-c3ccc(-c4ccccc4)cc3)nc3c(Cl)ncnc32)C1 2.11

Read off the recorded log10(IC50) for Cc1cccc(-c2ccc(-c3nc4ncccc4n3C[C@@H]3CCN(C(=O)C4CC4)C3)cc2)c1 1.80

Complete the entry with log10(IC50) for O=C(C1CC1)N1CC[C@@H](Cn2c(-c3ccc(-c4ccc5scnc5c4)cc3)nc3cnccc32)C1 1.00

Return log10(IC50) for the following compound: O=C(C1CC1)N1CC[C@@H](Cn2c(-c3ccc(-c4cnc5[nH]ccc5c4)cc3)nc3cnccc32)C1 2.15
